experiment: self-splicing fitness, log relative to wild type (ln ratio); higher = more splicing; Tetrahymena group I intron in knt gene, E. coli kanamycin selection, DiMSum; sequences stand for … in CUCUCU…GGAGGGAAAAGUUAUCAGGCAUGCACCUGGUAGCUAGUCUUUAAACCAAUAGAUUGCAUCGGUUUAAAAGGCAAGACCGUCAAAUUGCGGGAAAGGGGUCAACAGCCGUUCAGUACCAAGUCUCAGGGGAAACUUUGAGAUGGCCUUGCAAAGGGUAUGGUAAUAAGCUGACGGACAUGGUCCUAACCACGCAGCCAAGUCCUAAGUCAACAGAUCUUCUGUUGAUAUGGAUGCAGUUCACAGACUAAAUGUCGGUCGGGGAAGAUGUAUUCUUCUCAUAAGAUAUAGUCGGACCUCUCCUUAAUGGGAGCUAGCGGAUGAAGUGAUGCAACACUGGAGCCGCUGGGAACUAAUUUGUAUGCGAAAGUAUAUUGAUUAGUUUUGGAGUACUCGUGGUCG; conditions: 30 °C;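 further: selection with 25 µg/mL kanamycin versus none on LB agar overnight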
Respond with 1 (yes) for self-splicing fitness (ln) values of -3 and above, 0 (no) for values below.

{"columns": ["sequence-string", "group"],
 "data": [
  ["GCGCAGCAAUAUUACGCAAU", "1 (yes)"],
  ["AACAAGCAAUAUUACGUUCC", "0 (no)"],
  ["AGCAAGCAAUAUUACGUGAU", "1 (yes)"],
  ["UGCGAGCAAUAUUACGUACC", "1 (yes)"],
  ["CCACAGCAAUAUUACGAUAA", "0 (no)"],
  ["ACCCAGCAAUAUUACGGUAG", "0 (no)"],
  ["AGAGAGCAAUAUUACGUCGA", "1 (yes)"],
  ["UGAUAGCAAUAUUACGGAUC", "1 (yes)"],
  ["GGAGAGCAAUAUUACGACAU", "1 (yes)"],
  ["CAUUAGCAAUAUUACGCCAC", "1 (yes)"],
  ["CUCGAGCAAUAUUACGCAGG", "0 (no)"],
  ["UGGGAGCAAUAUUACGUAUC", "0 (no)"],
  ["UGAUAGCAAUAUUACGUGCC", "1 (yes)"],
  ["ACAAAGCAAUAUUACGCAGU", "0 (no)"],
  ["GAACAGCAAUAUUACGUAGG", "1 (yes)"],
  ["UCUUAGCAAUAUUACGCGGU", "0 (no)"],
  ["UUGUAGCAAUAUUACGCCGA", "1 (yes)"],
  ["GUCAAGCAAUAUUACGUUGG", "0 (no)"],
  ["UGGAAGCAAUAUUACGUGAU", "1 (yes)"],
  ["GACAAGCAAUAUUACGUGGG", "0 (no)"],
  ["GAACAGCAAUAUUACGUACU", "1 (yes)"],
  ["AGCGAGCAAUAUUACGCAGC", "0 (no)"],
  ["UGAUAGCAAUAUUACGAACU", "1 (yes)"],
  ["CAGCAGCAAUAUUACGUAAA", "0 (no)"],
  ["GGCCAGCAAUAUUACGGAAU", "1 (yes)"],
  ["UGACAGCAAUAUUACGAAUC", "0 (no)"],
  ["CUUAAGCAAUAUUACGGGAC", "0 (no)"],
  ["AAAUAGCAAUAUUACGCGGU", "1 (yes)"],
  ["AUACAGCAAUAUUACGGGCG", "1 (yes)"],
  ["CUCAAGCAAUAUUACGAAGG", "1 (yes)"],
  ["CCGAAGCAAUAUUACGGCGG", "0 (no)"],
  ["UGCAAGCAAUAUUACGCUAA", "1 (yes)"],
  ["UACGAGCAAUAUUACGUAUU", "0 (no)"],
  ["AACAAGCAAUAUUACGCGCA", "1 (yes)"],
  ["AGCUAGCAAUAUUACGAUCC", "1 (yes)"],
  ["UUGCAGCAAUAUUACGUCAU", "1 (yes)"],
  ["GUGCAGCAAUAUUACGUGAA", "1 (yes)"],
  ["UUGAAGCAAUAUUACGCAUG", "1 (yes)"],
  ["UUUAAGCAAUAUUACGUCAA", "1 (yes)"],
  ["CCCGAGCAAUAUUACGUCGU", "1 (yes)"],
  ["GCAUAGCAAUAUUACGGCAA", "1 (yes)"],
  ["GGGCAGCAAUAUUACGUGAG", "1 (yes)"],
  ["CUGGAGCAAUAUUACGGCCU", "1 (yes)"],
  ["UCGCAGCAAUAUUACGGUAG", "1 (yes)"],
  ["GGACAGCAAUAUUACGUCAG", "1 (yes)"],
  ["UGGCAGCAAUAUUACGUACC", "1 (yes)"],
  ["CUAGAGCAAUAUUACGGCUA", "0 (no)"],
  ["AGUUAGCAAUAUUACGGGUA", "1 (yes)"],
  ["CACCAGCAAUAUUACGGUGA", "1 (yes)"],
  ["UCACAGCAAUAUUACGAGCC", "1 (yes)"],
  ["AAAGAGCAAUAUUACGAAGG", "0 (no)"],
  ["CCUAAGCAAUAUUACGUACG", "1 (yes)"],
  ["AACUAGCAAUAUUACGAACA", "1 (yes)"],
  ["GCACAGCAAUAUUACGCUUC", "1 (yes)"],
  ["CGAUAGCAAUAUUACGCACC", "1 (yes)"],
  ["CCCAAGCAAUAUUACGAAUC", "1 (yes)"],
  ["ACUAAGCAAUAUUACGCGAG", "1 (yes)"],
  ["UGGUAGCAAUAUUACGUGAA", "1 (yes)"],
  ["GGAUAGCAAUAUUACGAGUC", "1 (yes)"],
  ["GGGGAGCAAUAUUACGUGCU", "1 (yes)"],
  ["UCAGAGCAAUAUUACGACAU", "0 (no)"],
  ["CUCCAGCAAUAUUACGCCUG", "0 (no)"],
  ["AGUGAGCAAUAUUACGGGCA", "1 (yes)"]
]}

* * *

Listed next: entries and their corresponding self-splicing fitness (ln).
experiment: self-splicing fitness, log relative to wild type (ln ratio); higher = more splicing; Tetrahymena group I intron in knt gene, E. coli kanamycin selection, DiMSum; sequences stand for … in CUCUCU…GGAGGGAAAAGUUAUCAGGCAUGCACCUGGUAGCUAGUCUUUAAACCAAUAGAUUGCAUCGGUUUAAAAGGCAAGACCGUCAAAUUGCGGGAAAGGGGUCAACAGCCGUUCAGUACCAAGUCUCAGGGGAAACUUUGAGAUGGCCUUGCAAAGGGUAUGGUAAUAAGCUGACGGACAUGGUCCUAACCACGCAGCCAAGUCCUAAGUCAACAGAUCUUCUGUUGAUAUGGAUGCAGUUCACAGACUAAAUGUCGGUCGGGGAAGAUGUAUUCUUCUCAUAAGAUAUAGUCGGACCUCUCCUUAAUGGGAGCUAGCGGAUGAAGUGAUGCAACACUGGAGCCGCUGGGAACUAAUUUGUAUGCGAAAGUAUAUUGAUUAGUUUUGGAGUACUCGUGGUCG; conditions: 30 °C

{"columns": ["sequence-string", "self-splicing fitness (ln)"],
 "data": [
  ["AUAUAGCAAUAUUACGCAUC", -2.63],
  ["GCAAAGCAAUAUUACGAGCU", -3.48],
  ["UUAAAGCAAUAUUACGCAAG", -0.46],
  ["CGUUAGCAAUAUUACGAGCG", -3.69],
  ["ACUUAGCAAUAUUACGUUGU", -2.9],
  ["AUCGAGCAAUAUUACGUUCU", -1.32],
  ["GCUUAGCAAUAUUACGAACU", -0.838],
  ["GAGCAGCAAUAUUACGCAGG", -2.08],
  ["UAACAGCAAUAUUACGCCGG", -0.84],
  ["AGGGAGCAAUAUUACGUGAA", -3.18],
  ["GUCCAGCAAUAUUACGCGAA", -1.21],
  ["UUGUAGCAAUAUUACGUGAA", -1.87],
  ["CUAAAGCAAUAUUACGAAUA", -2.73],
  ["ACCCAGCAAUAUUACGGGCU", -1.68],
  ["GUUAAGCAAUAUUACGCCGA", -1.83],
  ["AAAAAGCAAUAUUACGCACC", -1.16],
  ["CCCCAGCAAUAUUACGCGAC", -3.37],
  ["GCUGAGCAAUAUUACGAGGU", -3.72],
  ["AAAUAGCAAUAUUACGCCCA", -0.102],
  ["AAUUAGCAAUAUUACGUCAA", -2.11],
  ["UUUCAGCAAUAUUACGGGAU", -2.73],
  ["UAAGAGCAAUAUUACGAUUA", -0.804],
  ["AGCAAGCAAUAUUACGGCUG", -0.939],
  ["CAAUAGCAAUAUUACGUCGA", -2.82],
  ["GCGGAGCAAUAUUACGAUGG", -1.16],
  ["CGUCAGCAAUAUUACGCUUA", -2.18],
  ["AAUAAGCAAUAUUACGUUCC", -1.96],
  ["ACAAAGCAAUAUUACGGCCC", -0.546],
  ["CUGUAGCAAUAUUACGGAGA", -2.5],
  ["CAGUAGCAAUAUUACGGGCC", -2.57],
  ["CUGAAGCAAUAUUACGUAAA", -2.54],
  ["CCAUAGCAAUAUUACGACAA", -3.06],
  ["UGACAGCAAUAUUACGAGAC", -3.79],
  ["UCCAAGCAAUAUUACGUGAC", -3.7]
]}

Cited source for all entries: the supplement of paper PMC7877785
